Test system: mouse ear
experimental.protocol: mouse ear assay (croton oil-induced ear inflammation, anti-inflammatory activity)
Type: in vivo, male ddY strain mouse
assay.conditions: topical, 0.05 ml in acetone containing 2% croton oil on right ear; 3 hours; linear regression of data at 2×10^-2, 4×10^-2 and 8×10^-2 M; groups of 15 mice
Please respond with Met when measured ED50 is strictly beneath 0.05 M, and with Not met in all other cases.

compound	category
COc1ccc2c(c1)c(CC(=O)O)c(C)n2C(=O)c1ccc(Cl)cc1 [Indomethacin, reference compound]	Not met
COc1ccc2c(c1)c(CC(=O)N(O)CN1CCOCC1)c(C)n2C(=O)c1ccc(Cl)cc1	Not met
CCN(CC)CN(O)C(=O)Cc1c(C)n(C(=O)c2ccc(Cl)cc2)c2ccc(OC)cc12	Met
COc1ccc2c(c1)c(CC(=O)NO)c(C)n2C(=O)c1ccc(Cl)cc1 [Indomethacin hydroxamic acid]	Not met
COc1ccc2c(c1)c(CC(=O)N(O)CN1CCN(C)CC1)c(C)n2C(=O)c1ccc(Cl)cc1	Met
